# PROTOCOL_CONDITIONS: 25 °C
EXPERIMENTAL_READOUT: solubility (mM)
# value in mM; strip the unit string

Examples from the recorded data:
CCC(=O)OC
708
Cc1ccc2c(c1N)C(=O)c1ccccc1C2=O
0.0014
O=[N+]([O-])c1ccc(N=Nc2ccc(O)cc2)cc1
0.016
CC(O)COc1ccccc1 (stereo not given)
72.3
c1ccc2c(c1)-c1cccc3cccc-2c13
0.00114
Clc1ccc(/N=N/c2ccccc2)cc1
0.00198
CC(=O)C=CC1=C(C)CCCC1(C)C
0.879
C[Se]C
224

// O=[N+]([O-])c1ccc2ccccc2c1 : solubility value = 0.0534

Lookup result for Clc1cc(Cl)c(-c2ccccc2Cl)cc1Cl ; measured solubility: 5.62e-05

For this compound ( Clc1cc2c(oc3c(Cl)c(Cl)c(Cl)c(Cl)c32)c(Cl)c1Cl ), measured solubility is 3.3e-09

The recorded solubility for CC(=O)c1ccc(-c2ccccc2)cc1 is 0.489
